Target: SIX1 homeodomain (reference allele) (human, UniProt Q15475 108-198)
Sequence: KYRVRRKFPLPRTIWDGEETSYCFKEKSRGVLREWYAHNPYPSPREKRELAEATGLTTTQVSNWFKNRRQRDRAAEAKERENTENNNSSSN
Experiment: universal protein binding microarray; Universal all-10-mer PBM (8x60K, AMADID 030236), 300 nM GST-tagged protein, Alexa Fluor 488 anti-GST; buffer, salt, pH and temperature not stated (as in Berger); high values mean tight binding
Conditions: protein: ivt; tags: N-terminal GST; dsDNA, one strand shown
Over roughly 33,000 sequences, “e-score” has its median near -0.053; the highest 2% begin near 0.38. The sample as a whole holds a higher share of the highest values than the screen did.
Measurement name: binding signal
Field note: include the unit after the figure.

Look over these answered cases.
Measured binding signal, `CAGTATTA` : 0.295 E-score

Reported binding signal for `ATTGTATA` was 0.308 E-score

Measured binding signal of `AATGATAG` : 0.309 E-score

Input `CATAATCC` . Output binding signal: 0.3 E-score

`GTGTCCCA` has a reported binding signal of 0.204 E-score

For `CCGTGATC` the sequence record lists binding signal as 0.364 E-score

For each of the items listed, what is its binding signal?
1. ATCACCGC
2. CGATCGCC
3. ATCCCTTC
4. TATACGGA
5. ATCCTCGG
6. GTATCAAC
7. GATGATGA

OUT:
1. 0.191 E-score
2. 0.257 E-score
3. 0.303 E-score
4. 0.28 E-score
5. 0.23 E-score
6. 0.475 E-score
7. 0.189 E-score

Hey, quick one: what's binding signal for each of these?
1. GTGTCAAC
2. ATACGCGG
3. AGTCATAT
4. AGAGATAG
5. TACTATCA
6. TATCCTGA
7. CAAGATAC

OUT:
1. 0.287 E-score
2. 0.182 E-score
3. 0.257 E-score
4. 0.153 E-score
5. 0.325 E-score
6. 0.382 E-score
7. 0.349 E-score

====

Would you mind telling me the reported binding signal of each entry?
Molecular target: SIX1 homeodomain (reference allele) (human, UniProt Q15475 108-198)
Sequence: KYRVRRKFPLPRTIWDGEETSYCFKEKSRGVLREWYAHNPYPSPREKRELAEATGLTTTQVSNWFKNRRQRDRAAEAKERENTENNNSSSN
Test: universal protein binding microarray; Universal all-10-mer PBM (8x60K, AMADID 030236), 300 nM GST-tagged protein, Alexa Fluor 488 anti-GST; buffer, salt, pH and temperature not stated (as in Berger); high values mean tight binding
Conditions: protein: ivt; tags: N-terminal GST; dsDNA, one strand shown
Over roughly 33,000 sequences, “e-score” has its median near -0.053; the highest 2% begin near 0.38. The list comes from a sample in which the highest values are over-represented; it also holds close analogues and randomly drawn sequences.
Answers are plain numbers, in E-score.

Hey, can you go through the list below and give me binding signal for every item?
1. GATCTATA
2. CATGAGAC
3. CCGGGTGA
4. GTAGGATA
5. CCGGCTAA

OUT:
[0.298, 0.296, 0.201, 0.355, 0.178]

Look at each sequence and report its binding signal.
1. AGATGGAT
2. AATATTCC
3. CAGTAGTA
4. ATCTAGGG

OUT:
1: 0.328; 2: 0.251; 3: 0.154; 4: 0.187

// input: 5 sequences below; output: binding signal for each
1. CTAGGATA
2. TATGCGAA
3. AAGGTATG
4. ATTAAATA
5. CAGTTATC

OUT:
1: 0.356; 2: 0.164; 3: 0.201; 4: 0.24; 5: 0.176

// binding signal value for `AATACTAT` : 0.278

====

Biological target: SIX1 homeodomain (reference allele) (human, UniProt Q15475 108-198)
Sequence: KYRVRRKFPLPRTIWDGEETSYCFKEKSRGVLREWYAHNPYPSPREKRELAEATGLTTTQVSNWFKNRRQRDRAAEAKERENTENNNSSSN
Assay: universal protein binding microarray; Universal all-10-mer PBM (8x60K, AMADID 030236), 300 nM GST-tagged protein, Alexa Fluor 488 anti-GST; buffer, salt, pH and temperature not stated (as in Berger); high values mean tight binding
Conditions: protein: ivt; tags: N-terminal GST; dsDNA, one strand shown
Whole data set: some 33,000 sequences, median “e-score” near -0.053, cut for the highest 2% near 0.38. The list comes from a sample in which the highest values are over-represented; it also holds close analogues and randomly drawn sequences.
Class boundaries, taken from values of binding signal, are as follows: Low: < 0.2 E-score; Medium: ≥ 0.2 E-score and < 0.3 E-score; High: ≥ 0.3 E-score

# example entries with known answers
IN: Using the reported binding signal, which band applies to `ATGAAACC` ?
OUT: Medium

IN: // bin(item) where item = `CCATCTAC`
OUT: Low

IN: Which class holds `ATAGGGCG` ?
OUT: Low

IN: Band for `AACGGTGT` ?
OUT: Medium

IN: Sort into band: `CCGTAATC`
OUT: Low

Continuing:
IN: Please report the category associated with `GATACTAA` , nothing else.
OUT: High

IN: Which class does `GGGGTATA` fall in?
OUT: High

IN: Into which bin does this sequence go? `AGTGATCA`
OUT: High

IN: Hi, small favor: classify `ATATGACG` by its binding signal when you get a moment.
OUT: Medium

IN: Textbook exercise: identify the category of the sequence given here, `CTTAGATA` , according to its measured value.
OUT: Low

IN: Classify this sequence: `ATATTTGA`
OUT: Low

IN: Which binding signal band matches `AGTTGGTG` ?
OUT: Low

IN: Returns: class label. Input: `CTATATAG`
OUT: Low

IN: Which category fits this record: `GCTAGATA`
OUT: Medium

IN: Field: class (binding signal) — entry: `AGATAGGG`
OUT: Medium

IN: Lab note: sort `TATCGTGA` into the matching binding signal band.
OUT: Medium

IN: The entry to classify is `ATCATTAG` ; which class holds it?
OUT: Medium

IN: Category lookup for the sequence `ATAGCTAT`
OUT: Medium

====

Biological target: SIX1 homeodomain (reference allele) (human, UniProt Q15475 108-198)
Sequence: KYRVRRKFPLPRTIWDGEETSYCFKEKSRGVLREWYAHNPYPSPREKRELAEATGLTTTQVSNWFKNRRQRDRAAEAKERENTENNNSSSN
Experiment: universal protein binding microarray; Universal all-10-mer PBM (8x60K, AMADID 030236), 300 nM GST-tagged protein, Alexa Fluor 488 anti-GST; buffer, salt, pH and temperature not stated (as in Berger); high values mean tight binding
Conditions: protein: ivt; tags: N-terminal GST; dsDNA, one strand shown
The full ranking holds about 33,000 sequences; the median of “e-score” is about -0.053, and the highest 2% start at about 0.38. This excerpt belongs to a sample that is enriched for the highest values.
What binding signal was measured for each of the following?
Answers are plain numbers, in E-score.

# sequence `ATGGGATA` ; its binding signal = 0.36

// recorded binding signal for `CCAGATGA` : 0.203

binding signal reported for this sequence `CGATCAGA` : 0.192

Briefly, binding signal measured for `GACACTCC` : 0.258

Recorded result, `AGATCACC` , binding signal: 0.317

For `GGGTATTA` the sequence record lists binding signal as 0.393

Just so you know, measured binding signal for `GGATCAAA` came out at 0.372

`GGGGGATA` has a reported binding signal of 0.442

List binding signal for every entry below, keeping the order given.
1. TATTATGA
2. GGATCACA
3. ATACTAGC

OUT:
1: 0.207; 2: 0.436; 3: 0.245

Hi! Can you tell me binding signal for each of these sequences?
1. TAAACCCA
2. AGCCAGAT
3. CGATCACC
4. ATACGTCA
5. AAGATCGG
6. CTGGCATA
7. ATCGCTCA
8. ATCTCGGC

OUT:
[0.161, 0.176, 0.34, 0.196, 0.174, 0.228, 0.192, 0.164]

Sure, the documented binding signal for `AGAAGTAT` is 0.297

====

Target: SIX1 homeodomain (reference allele) (human, UniProt Q15475 108-198)
Sequence: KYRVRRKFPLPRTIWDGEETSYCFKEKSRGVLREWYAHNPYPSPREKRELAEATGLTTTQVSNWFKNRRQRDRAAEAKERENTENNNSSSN
Test: universal protein binding microarray; Universal all-10-mer PBM (8x60K, AMADID 030236), 300 nM GST-tagged protein, Alexa Fluor 488 anti-GST; buffer, salt, pH and temperature not stated (as in Berger); high values mean tight binding
Details: protein: ivt; tags: N-terminal GST; dsDNA, one strand shown
The full ranking holds about 33,000 sequences; the median of “e-score” is about -0.053, and the highest 2% start at about 0.38. Many of the other results were omitted from the sample, so the highest values are more common in it than they were.
Measurement name: binding signal
Please answer using a numeric value trailed by its unit.

# sequence `ATATCAAG` ; its binding signal = 0.423 E-score

# batch: return binding signal for each of the 4 sequences below
1. AGATCAGG
2. GATCTCGC
3. ACTATCGA
4. AGTCTGAT

OUT:
1: 0.284 E-score; 2: 0.254 E-score; 3: 0.263 E-score; 4: 0.19 E-score

Parameter requested: binding signal. Apply to each item below.
1. AGAACACC
2. ATATCAGG
3. CAGATTGA
4. CCTATCGC
5. AGACGATA
6. AGTATAGA
7. ATATCAAA

OUT:
["0.179 E-score", "0.403 E-score", "0.219 E-score", "0.29 E-score", "0.363 E-score", "0.195 E-score", "0.374 E-score"]

Source of measurements: paper PMC10668032
